Where do these numbers come from? They come from patent US4940711A.

Please go through the items and note down their LD50.
- protocol: LD50 in the mouse per os (acute toxicity)
- protocol conditions: in vivo, po, tested as hydrochloride salt except AC 2, 4 and 9 (free bases)
Structures can show the parent of a compound that is named as a salt.

Some molecules with recorded LD50:
                                   molecule  readout_value
0  COc1ccccc1N1CCN(C(C)CC(=O)Nc2ccc(S(N)(=O)=O)cc2)CC1 (stereo not shown)   > 3000 mg/kg
1  COc1ccccc1N1CCN(CCC(=O)Nc2ccc(NC(C)=O)cc2)CC1   > 3000 mg/kg
2  COc1ccccc1N1CCN(CCC(=O)Nc2cccc(Cl)c2)CC1   > 3000 mg/kg
3  COc1ccccc1N1CCN(CCC(=O)Nc2cc(OC)c(OC)c(OC)c2)CC1 [Example 20, hydrochloride]      730 mg/kg
4  COc1ccccc1N1CCN(CCC(=O)Nc2ccc(S(=O)(=O)N(C)C)cc2)CC1   > 3000 mg/kg
5  COc1ccccc1N1CCN(CCC(=O)Nc2ccc(S(N)(=O)=O)cc2)CC1   > 3000 mg/kg
6  COc1ccccc1N1CCN(CCC(=O)Nc2ccc(C(N)=O)cc2)CC1   > 3000 mg/kg
7  COc1ccccc1N1CCN(CCC(=O)Nc2ccc(C#N)cc2)CC1      320 mg/kg

Here are 2 molecules. What values of LD50 were reported for them?
1. COc1ccccc1N1CCN(CCC(=O)Nc2ccc(S(=O)(=O)NC(C)=O)cc2)CC1
2. COc1ccc(NC(=O)CCN2CCN(c3ccccc3OC)CC2)cc1

Output:
1: > 3000 mg/kg; 2: > 3000 mg/kg

====

Please provide measured LD50 for the entries that follow.
- protocol: LD50 in the mouse per os (acute toxicity)
- protocol conditions: in vivo, po, tested as hydrochloride salt except AC 2, 4 and 9 (free bases)
Where a name gives a salt, the structure may show the parent alone.
Numbers only, in mg/kg.

Recorded LD50, per entry:
>>> print(df.to_string())
                                   molecule  readout_value
0  COc1ccccc1N1CCN(CCC(=O)Nc2ccc([N+](=O)[O-])cc2)CC1           2100
1  COc1ccccc1N1CCN(CCC(=O)Nc2ccc(C(C)O)cc2)CC1 (stereo not drawn)            537
2  COc1ccccc1N1CCN(CCC(=O)Nc2cccc(C(F)(F)F)c2)CC1 [Example 6b, hydrochloride]           1600

Parameters: items (list). Returns: LD50 for each item.
1. COc1ccccc1N1CCN(CC(=O)Nc2ccc(N)cc2)CC1
2. COc1cccc(NC(=O)CCN2CCN(c3ccccc3OC)CC2)c1 [Example 6d, hydrochloride]
3. COc1ccccc1N1CCN(CCC(=O)Nc2ccc3c(c2)OCO3)CC1
4. COc1ccccc1N1CCN(CCC(=O)Nc2ccc(C(C)=O)cc2)CC1

Output:
1000
649
340
2200
